Assignment: determine reported IC50 for the given molecules.
# measuredOn: recombinant HIV (pNL4-3) heterodimeric (p66/p51) Reverse Transcriptase (Human immunodeficiency virus type 1 group M subtype B, UniProt P12497)
# Construct: purified recombinant HIV (pNL4-3) heterodimeric (p66/p51) Reverse Transcriptase (RT)
# assayRemarks: reverse transcriptase assay
# Protocol: For the assays listed in Table I, the integrase assay was conducted using the XpressBio HIV-1 Integrase Assay Kit according to the manufacture's protocol. […] 2 μl 100 nM HIV-1 Protease along with 2 uL 20 μM Abz Substrate was added into each well and incubated at room temperature (avoiding light) for 1 hour before being read on an Envision plate reader (Perkin Elmer) excitation at 280 nm, emission at >435 nm. […] The reduction of radioactivity represents the potency of compound inhibition.

molecule	IC50
CCc1c2c(nc3ccc(N)cc13)-c1cc3c(c(=O)n1C2)CNC(=O)[C@]3(O)CC [Compound O5-SN]	> 100 µM
CCc1c2c(nc3ccc(O)cc13)-c1cc3c(c(=O)n1C2)CNC(=O)[C@]3(O)CC [SN38-L]	> 100 µM

response.value for Cc1ccnc2c1NC(=O)c1cccnc1N2C1CC1 [nevirapine, reference compound] (field: IC50) = 0.23 µM
